# System: UISO
# Test protocol: qHTS assay to identify novel small-molecules to repurpose for Merkel cell carcinoma treatment (AID 1296009); note: nearly all actives have a fitted effect of over 60% in size
# Study conditions: MCC and control cell lines, CellTiter-Glo viability, 72 h; series mostly up to 46 µM
Results filed as inconclusive are left out. Activity calls are given as the source filed them. Calls come from the whole dose curve; as a rule, active = well fitted inhibition curve with a large enough effect; inconclusive = small, poorly fitted or top-dose-only effect; inactive = flat fitted curve, though single readings scatter.
# output must be one of YES for active, NO for inactive

query: Recorded test outcome, item Cc1nnc2n1-c1sc(CCc3ccc(CC(C)C)cc3)cc1C(c1ccccc1Cl)=NC2C (centres undefined)
result: YES

query: Then CCN1CCCC1CNC(=O)C(O)(c1ccccc1)c1ccccc1 (centres undefined) ?
result: NO

query: Another compound to look at: COP(=S)(OC)Oc1ccc(S(N)(=O)=O)cc1
result: NO

query: How about this compound: CCOC(=O)NC(O)C(Cl)(Cl)Cl (centres undefined)
result: NO

query: Also C=CCN1CC[C@]23CCCC[C@H]2[C@H]1Cc1ccc(O)cc13 ?
result: NO

query: What about COc1ccc2c3c1O[C@H]1[C@@H](O)C=C[C@H]4[C@@H](C2)N(C)CC[C@@]341 ?
result: YES

query: Also COc1ccc(CN2CCNCC2)c(OC)c1OC ?
result: NO

query: Next entry: O=C(O)c1nn(Cc2ccc(Cl)cc2Cl)c2ccccc12
result: NO

query: Same read-out for Clc1ccc(CSC(Cn2ccnc2)c2ccc(Cl)cc2Cl)cc1 (centres undefined) ?
result: YES

query: Check O=C(CCCCl)c1ccc(F)cc1 too.
result: NO

query: Note, next up: CC(C)(C)OC(=O)c1ncn2c1[C@@H]1CCCN1C(=O)c1c(Br)cccc1-2
result: NO

query: Next: O=C(N[C@H]1N=C(c2ccccc2F)c2cccc3c2N(CC3)C1=O)c1cc2ccccc2[nH]1
result: NO

query: Another compound to check: O=C(CCCN1CCC(n2c(=O)[nH]c3ccccc32)CC1)c1ccc(F)cc1
result: NO

query: Continue with Oc1c(Br)cc(Br)cc1Br
result: NO

query: Could you do the same for CCNc1nc(Cl)nc(NCC)n1 , please?
result: NO

query: Next compound: CCN(CC)Cc1nccn1-c1ccc([N+](=O)[O-])cc1C(=O)c1ccccc1Cl
result: NO

query: What do you have for CN(C)CCc1c[nH]c2ccccc12 ?
result: NO

query: Let us now turn to O=C(NC(=O)c1c(F)cccc1F)Nc1cc(Cl)c(OC(F)(F)C(F)C(F)(F)F)cc1Cl (centres undefined)
result: NO

query: Repeat for the following compound: C[C@H]1C(=O)O[C@@H]2CCN3CC=C(COC(=O)[C@](C)(O)[C@]1(C)O)[C@H]23
result: NO

query: Consider next the compound CN(C)C(=O)Oc1cc(OC(=O)N(C)C)cc(C(O)CNC(C)(C)C)c1 (centres undefined) in the same way.
result: NO

query: Now consider OC(c1ccccc1)(c1ccccc1)C1CCNCC1 .
result: NO

query: Can you handle ClCCCN1CCN(c2cccc(Cl)c2)CC1 next?
result: NO

query: Likewise for COc1cc(N)c(Cl)cc1C(=O)NC1CN2CCC1CC2 (centres undefined) ?
result: NO

query: Okay, and Cc1ccc(N=CN(C)C=Nc2ccc(C)cc2C)c(C)c1 ?
result: NO

###

# System: 7G8
# Test protocol: qHTS profiling for inhibitors of Plasmodium falciparum proliferation (AID 504749); note: nearly all actives have a fitted effect of over 60% in size; note: potency is the fitted concentration of half-maximal effect
# Study conditions: P. falciparum in erythrocytes, SYBR Green DNA, 72 h; series mostly up to 28.7 µM
Records with an inconclusive call do not appear. Activity calls are given as the source filed them. Calls come from the whole dose curve; as a rule, active = well fitted inhibition curve with a large enough effect; inconclusive = small, poorly fitted or top-dose-only effect; inactive = flat fitted curve, though single readings scatter.
Measured attribute: Potency

Examples with answers:
CC(C)NCC(O)c1ccc(N)c(C#N)c1 (stereo not drawn)	inactive
CCN(Cc1ccc(Cl)nc1)/C(=C/[N+](=O)[O-])NC	inactive
c1cc2c(c(N3CCNCC3)c1)OCCO2	inactive
C[N+]1(CCC(C(N)=O)(c2ccccc2)c2ccccc2)CCCCC1	inactive
CC(C)C(Br)C(=O)NC(N)=O (stereo not drawn)	inactive
c1ccc2nc(N3CCNCC3)ccc2c1	inactive
COCC(=O)N(c1c(C)cccc1C)C(C)C(=O)OC (stereo not drawn)	inactive
Cc1ccc(N=CN(C)C=Nc2ccc(C)cc2C)c(C)c1	inactive

query: Query (molecule): CCCCCCCCC(=O)NCc1ccc(O)c(OC)c1 ; field requested: Potency
result: inactive

query: Field entry: CN1C(=O)[C@@H](NC(=O)c2cc3ccccc3[nH]2)N=C(c2ccccc2)c2ccccc21
result: 11.2 µM (active)
